Target: human melanocortin receptor subtype 4 (hMC4-R) (human), P32245
Sequence (P32245 whole entry): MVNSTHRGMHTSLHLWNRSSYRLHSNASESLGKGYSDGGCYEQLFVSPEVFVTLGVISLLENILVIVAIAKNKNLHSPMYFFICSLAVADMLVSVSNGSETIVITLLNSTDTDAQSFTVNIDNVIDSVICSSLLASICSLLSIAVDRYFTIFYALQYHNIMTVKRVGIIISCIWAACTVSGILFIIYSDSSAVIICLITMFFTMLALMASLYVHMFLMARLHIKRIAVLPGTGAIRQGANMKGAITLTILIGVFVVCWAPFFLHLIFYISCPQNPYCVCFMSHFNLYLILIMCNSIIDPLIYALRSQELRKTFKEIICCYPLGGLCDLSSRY
Assay: [125I]-NDP-α-MSH competition, membranes
Bridge positions count the residues as written; N and C are the ends. Square brackets hold non-standard residues; d marks the D form. Ends that are not written are not given here. 2Nal = N[C@@H](Cc1ccc2ccccc2c1)C(=O)O; d2Nal = N[C@H](Cc1ccc2ccccc2c1)C(=O)O; Bta = N[C@@H](Cc1csc2ccccc12)C(=O)O; Nle = CCCC[C@H](N)C(=O)O
Some binders, each annotated with its measured Ki.
Numeric answer only, unit nM assumed.

Worked examples follow.
binder="[Nle]GC[dA]H[dF]RWC-NH2 (disulfide 3-9; also: N-terminal hydantoin: C(O) bridges X1 N-terminal N and G2 backbone N, bridge at N via C(O), other end not in the chain) [Hydantoin(C(O)-(Nle-Gly))-c(Cys-D-Ala-His-D-Phe-Arg-Trp-Cys)-NH2]" attribute_measured=Ki value_units=nM experimental_result=6.7
binder="Ac-CEH[d2Nal]R[2Nal]ACPPKD-NH2 (disulfide 1-8; SMILES CC(=O)N[C@H]1CSSC[C@@H](C(=O)N2CCC[C@H]2C(=O)N2CCC[C@H]2C(=O)N[C@@H](CCCCN)C(=O)N[C@@H](CC(=O)O)C(N)=O)NC(=O)[C@H](C)NC(=O)[C@H](Cc2ccc3ccccc3c2)NC(=O)[C@H](CCCNC(=N)N)NC(=O)[C@@H](Cc2ccc3ccccc3c2)NC(=O)[C@H](Cc2c[nH]cn2)NC(=O)[C@H](CCC(=O)O)NC1=O) [Ac-c(Cys-Glu-His-D-2-Nal-Arg-2-Nal-Ala-Cys)-Pro-Pro-Lys-Asp-NH2]" attribute_measured=Ki value_units=nM experimental_result=1.2

Let us examine a further case.
Indicate the recorded Ki value for this binder: Ac-CEH[d2Nal]R[Bta]ACPPKD-NH2 (disulfide 1-8; SMILES CC(=O)N[C@H]1CSSC[C@@H](C(=O)N2CCC[C@H]2C(=O)N2CCC[C@H]2C(=O)N[C@@H](CCCCN)C(=O)N[C@@H](CC(=O)O)C(N)=O)NC(=O)[C@H](C)NC(=O)[C@H](Cc2csc3ccccc23)NC(=O)[C@H](CCCNC(=N)N)NC(=O)[C@@H](Cc2ccc3ccccc3c2)NC(=O)[C@H](Cc2c[nH]cn2)NC(=O)[C@H](CCC(=O)O)NC1=O) [Ac-c(Cys-Glu-His-D-2-Nal-Arg-Bal-Ala-Cys)-Pro-Pro-Lys-Asp-NH2] 0.586
